Taken from patent US7402579B2.

Below, each entry is listed alongside its reported pIC50.
System: HeLa cells
Procedure text: MTS cell proliferation/cytotoxicity assay, Hela
Format: cell-based
Experimental conditions: Homo sapiens, Table 1A
From the text: The antiproliferative effects of the present compounds may be tested using a cell proliferation and/or cytotoxicity assay, following protocols described below. Cell culture. Human cervical epithelial cells (HeLa cells) are obtained from American Type Culture Collection (Manassas, Va.). […]
pIC50: −log10 of the molar value.
Measurement name: pIC50

{"columns": ["Compound", "Measurement name", "Readout value"],
 "data": [
  ["CN1CCCC1CCNC(=O)c1cn2c3c(c(N4CCC(c5cnccn5)C4)c(F)cc3c1=O)Oc1ccc(C#N)cc1-2 (centres unmarked)", "pIC50", 5.92],
  ["CN1CCCC1CCNC(=O)c1cn2c3c(c(N4CCC(c5cnccn5)C4)c(F)cc3c1=O)Oc1ccc(C(N)=O)cc1-2 (centres unmarked)", "pIC50", 4.96],
  ["N#Cc1ccc2c(c1)-n1cc(C(=O)NCCN3CCOCC3)c(=O)c3cc(F)c(N4CCC(N)C4)c(c31)O2 (centres unmarked)", "pIC50", 6.17],
  ["N#Cc1ccc2c(c1)-n1cc(C(=O)NCCN3CCCC3)c(=O)c3cc(F)c(N4CCC(c5cnccn5)C4)c(c31)O2 (centres unmarked)", "pIC50", 6.68],
  ["CC(C)N1CCN(c2c(F)cc3c(=O)c(C(=O)NCCN4CCCC4)cn4c3c2Oc2ccc(C#N)cc2-4)CC1", "pIC50", 7.40]
]}
